The measured values listed here are drawn from patent US20230242662A1.

As shown below, each of these binders has a reported Ratio (pH 7.4/6.0) value.
# measured-target: human CD46 expressed on 293 cells (human) (UniProt P15529)
# run-description: FACS, 293 cells expressing human CD46; EC50 at pH 7.4 over EC50 at pH 6.0
Enter the number alone.

Answered cases to consult:
binder: BAP133-2-03-03-SL (antibody, V domains shown) VH: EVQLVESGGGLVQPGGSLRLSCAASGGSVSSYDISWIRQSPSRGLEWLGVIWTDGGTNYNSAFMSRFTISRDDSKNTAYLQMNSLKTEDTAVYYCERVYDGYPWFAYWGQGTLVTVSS VL: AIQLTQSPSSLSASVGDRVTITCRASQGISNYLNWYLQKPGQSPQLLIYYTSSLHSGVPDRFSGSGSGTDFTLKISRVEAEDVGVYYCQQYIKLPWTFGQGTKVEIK
Ratio (pH 7.4/6.0): 2.2
--
binder: BA-133-04-04 (antibody, V domains shown) VH: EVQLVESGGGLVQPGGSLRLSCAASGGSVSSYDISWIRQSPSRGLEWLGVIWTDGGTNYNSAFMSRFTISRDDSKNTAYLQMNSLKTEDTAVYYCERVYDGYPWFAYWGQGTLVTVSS VL: AIQLTQSPSSLSASVGDRVTITCRASQGISNYLNWYLQKPGQSPQLLIYYTSSLHEGVPDRFSGSGSGTDFTLKISRVEAEDVGVYYCQQYIKLPWTFGQGTKVEIK
Ratio (pH 7.4/6.0): 2.7

Next binder, Ratio (pH 7.4/6.0) to be filled in.
# binder BA-133-04-01 (antibody, V domains shown) VH: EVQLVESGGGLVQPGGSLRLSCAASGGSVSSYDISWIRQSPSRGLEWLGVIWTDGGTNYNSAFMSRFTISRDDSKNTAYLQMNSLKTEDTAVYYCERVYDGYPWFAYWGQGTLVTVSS VL: AIQLTQSPSSLSASVGDRVTITCRASQWISNYLNWYLQKPGQSPQLLIYYTSSLHSGVPDRFSGSGSGTDFTLKISRVEAEDVGVYYCQQYIKLPWTFGQGTKVEIK ; its Ratio (pH 7.4/6.0) = 4.1
